# System: TO-3-N3 (biotin conjugate)
# Protocol Text: pull-down binding Z-score (relative to library population); higher = stronger binding
# Condition Summary: RNA library: Library-2
Output schema: class label derived from pull-down binding Z-score. Mapping: low-valued (below -0.4), mid-valued (-0.4 to below 0.05), high-valued (0.05 or more)

These solved cases illustrate the format of a correct answer.
{"Primary Sequence": "AUCAGUUCUCAUUUUACACACUGGC [hsa-mir-24-1]", "Class": "low-valued"}
{"Primary Sequence": "CUAUAGUAGCUGGUGGUAUUGUAGCUAUCGUAG [SHAPE_invitro_SARS-CoV-2_Motif_182]", "Class": "high-valued"}

### Prompt Kindly state the category for this sequence: ACACACACCAGACUAUGGAAGCCAGUGU [hsa-mir-147a]
### Response low-valued

* * *

# Tested on: TO-3-N3 (biotin conjugate)
# Protocol Text: pull-down binding Z-score (relative to library population); higher = stronger binding
# Condition Summary: RNA library: Library-2
Answer class 0 if pull-down binding Z-score is under -0.2, and class 1 if it is -0.2 or more.

These solved cases illustrate the format of a correct answer.
{"Primary Sequence": "ACAAGAGGGUGUGGUUGAUUAUGGUGCUAGAUUUUACUUUUACACCAGUAAAACAACUGUAGCGUCACUUAUCAACACACUUAACGAUCUAAAUGAAACUCUUGU", "Class": "class 1"}
{"Primary Sequence": "UUCUAGUCCCUAUUAGACUAGAA [hsa-mir-5681a]", "Class": "class 0"}
{"Primary Sequence": "CAUGUUUAUCACCCGCGAAGAAGCUAUAAGACAUGUACGUGCAUGGAUUGGCUUCGAUGUCGAGGGGUGUCAUG [DMSMaPseq_invitro_SARS-CoV-2_Motif_326]", "Class": "class 0"}
{"Primary Sequence": "CUUCUUGAAAUACUCCAAAAAGAGAAAGUCAACAUCAAUAUUGUUGGUGACUUUAAACUUAAUGAAG", "Class": "class 1"}
{"Primary Sequence": "AUUUCUGUAGCUCUGAGACUAGACCU [hsa-mir-544b]", "Class": "class 0"}
{"Primary Sequence": "CUUGAUGAUUUUGUUGAAAUAAUAAAAUCCCAAG", "Class": "class 0"}

### Prompt Reported pull-down binding Z-score reaches at least -0.2 for CUGUCUGUUGUAUAAAAGAAAAGAUCG [hsa-mir-517a] ?
### Response class 1

### Prompt Reported pull-down binding Z-score reaches at least -0.2 for AUACUGGAGCAAUAGAUACAGUU [hsa-mir-3692] ?
### Response class 0

### Prompt Reported pull-down binding Z-score reaches at least -0.2 for GAAGCGAGAUGUUUGUCUAAA [hsa-mir-6835] ?
### Response class 1

* * *

# Tested on: TO-3-N3 (biotin conjugate)
# Protocol Text: pull-down binding Z-score (relative to library population); higher = stronger binding
# Condition Summary: RNA library: Library-2
Answer No if pull-down binding Z-score is under 0.2, and Yes if it is 0.2 or more.

### Prompt Reported pull-down binding Z-score reaches at least 0.2 for AGGUAAGUAUGAUACUUACCUG [U1snRNP5ss-2] ?
### Response No

### Prompt Reported pull-down binding Z-score reaches at least 0.2 for CGGGGCGGGAGGGGAAGGGACGCCCG [hsa-mir-6850] ?
### Response Yes

### Prompt Reported pull-down binding Z-score reaches at least 0.2 for GGCUGGGCAGGCGGAAAGAGGUCUGAACUGCCUCUGCC [hsa-mir-6791] ?
### Response No

### Prompt Reported pull-down binding Z-score reaches at least 0.2 for ACAACCCUUAAGGGUGU [SHAPE_invivo_SARS-CoV-2_Motif_115] ?
### Response No

### Prompt Reported pull-down binding Z-score reaches at least 0.2 for CUUCACAUAUGUAUUGUUCUUUUUACCCUCCAGAUGAGGAUGAAGAAGAAGGUGAUUGUGAAG ?
### Response No

### Prompt Reported pull-down binding Z-score reaches at least 0.2 for CUCGCUGGGAGGUGUGCUAUCGUCUUCCCUGGGAG [hsa-mir-3689d-2] ?
### Response No

### Prompt Reported pull-down binding Z-score reaches at least 0.2 for CCCUGGGGAGCUGCUGCAGGCAGCAGGUGGGCGGGACGCCAGCAGGCUGUCUAGCUGUUCCCAUGAUGG [hsa-mir-6843] ?
### Response Yes

### Prompt Reported pull-down binding Z-score reaches at least 0.2 for GCGCUGCCAGAAACUGGCCCCAGCGC [bulge-CCC] ?
### Response No

### Prompt Reported pull-down binding Z-score reaches at least 0.2 for UCCUCCCAGUGGCUGGUGGA [IAV_invivo_PB2_1_Motif_9+IAV_invivo_PB2_1_Motif_9] ?
### Response No
